- Test system: collagen-induced platelet aggregation
- Test protocol: Platelet aggregation-inhibitory action (collagen-induced aggregation in platelet rich plasma)
- Type: cell-based
- Settings: human PRP, 37° C., read-out: Inhibition of collagen-induced platelet aggregation, IC50
pIC50: −log10 of the molar value.
Label no (0) if pIC50 falls below 7; label yes (1) in every other case.

> print(dat)
                           structure.string  label.value
1  Cn1cnc(-c2cc(C(=O)N3CCC(F)(F)CC3)nn2-c2cccnc2)c1       no (0)

Read the next record carefully.
(Q) Textbook exercise: given the entry Cc1ccc(-c2cc(C(=O)N3CCC(F)CC3)nn2-c2cccnc2)nc1 , state whether its pIC50 is greater than or equal to 7.
(A) yes (1)

###

Recorded inhibition at 50 µM for the following molecules
- Target entity: Cyclooxygenase-1 (COX-1) (Ovis aries, UniProt P05979)
- Construct: purchased Cayman Chemical Company 560101 and 560121
- Sequence (P05979 25-600): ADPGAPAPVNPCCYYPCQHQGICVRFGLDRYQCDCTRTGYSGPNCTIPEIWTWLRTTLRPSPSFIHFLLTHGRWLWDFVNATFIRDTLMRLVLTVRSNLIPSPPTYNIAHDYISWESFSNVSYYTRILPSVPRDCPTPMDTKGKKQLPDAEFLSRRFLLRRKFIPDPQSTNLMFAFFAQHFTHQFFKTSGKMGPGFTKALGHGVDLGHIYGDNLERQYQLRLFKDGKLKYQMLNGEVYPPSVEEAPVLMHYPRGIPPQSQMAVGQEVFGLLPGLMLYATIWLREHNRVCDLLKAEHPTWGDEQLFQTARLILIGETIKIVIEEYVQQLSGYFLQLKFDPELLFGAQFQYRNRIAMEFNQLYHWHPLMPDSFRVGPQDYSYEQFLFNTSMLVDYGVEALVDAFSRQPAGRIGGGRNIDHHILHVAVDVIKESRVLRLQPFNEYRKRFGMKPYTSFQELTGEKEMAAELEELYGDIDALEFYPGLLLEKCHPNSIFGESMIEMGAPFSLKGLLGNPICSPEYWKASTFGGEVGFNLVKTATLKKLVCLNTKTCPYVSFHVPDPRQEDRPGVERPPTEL
- Test protocol: COX Inhibitor Screening Assay Kit, COX-1 (PGF2α by ELISA)
- Assay type: biochemical
- Settings: 50 μM compound; read-out: Inhibitory effect against COX-1 at 50 μM (% inhibition)
I only need the number, in %, no unit after it.

Examples with their reported inhibition at 50 µM follow.
> print(dat)
                           structure.string  observed.value
1  O=C(c1cc(-c2ccc(CO)cn2)n(-c2cccnc2)n1)N1CCC(F)(F)CC1             5.9
2  C=C1CCN(C(=O)c2cc(-c3cn(C)cn3)n(-c3cccnc3)n2)CC1            11.9
3  Cc1ccc(-c2cc(C(=O)N3CCC(F)CC3)nn2-c2cccnc2)nc1           -16.7
4  Cc1ccc(-c2cc(C(=O)N3CCN(C)CC3)nn2-c2cccnc2)nc1             -21
5  O=C(c1cc(-c2ccc(Cl)cn2)n(-c2cccnc2)n1)N1CCC(F)CC1            -1.4

(Q) Tell me inhibition at 50 µM reported for Cc1ccc(-c2cc(C(=O)N3CCN(C)C(=O)C3)nn2-c2cccnc2)nc1
(A) 18.1

(Q) // fetch inhibition at 50 µM given entry Cn1cnc(-c2cc(C(=O)N3CCC(F)(F)CC3)nn2-c2cccnc2)c1
(A) 5.5

(Q) In one line, give reported inhibition at 50 µM of the entry NC(=O)c1ccc(-c2cc(C(=O)N3CCC(F)(F)CC3)nn2-c2cccnc2)nc1 .
(A) 10.3

###

- Test system: collagen-induced platelet aggregation
- Test protocol: Platelet aggregation-inhibitory action (collagen-induced aggregation in platelet rich plasma)
- Assay type: cell-based
- Settings: human PRP, 37° C., read-out: Inhibition of collagen-induced platelet aggregation, IC50
For each record, check the reported IC50: if it is below 200 nM write Y, else write N.

Answered examples (4):
> print(dat)
                           structure.string  label.value
1  Cc1ccc(-c2cc(C(=O)N3CCN(C)CC3)nn2-c2cccnc2)nc1            Y
2  Cc1ccc(-c2cc(C(=O)N3CCN(C)C(=O)C3)nn2-c2cccnc2)nc1            N
3  Cc1ccc(-c2cc(C(=O)N3CCC(F)(F)CC3)nn2-c2cccnc2)nc1            Y
4  O=C(c1cc(-c2ccc(CO)cn2)n(-c2cccnc2)n1)N1CCC(F)(F)CC1            Y

(Q) IC50 under 200 nM? Item: C=C1CCN(C(=O)c2cc(-c3cn(C)cn3)n(-c3cccnc3)n2)CC1
(A) Y

###

- Tested on: collagen-induced platelet aggregation
- Test protocol: Platelet aggregation-inhibitory action (collagen-induced aggregation in platelet rich plasma)
- Assay type: cell-based
- Settings: human PRP, 37° C., read-out: Inhibition of collagen-induced platelet aggregation, IC50
Observable: IC50 (nM)
Respond with the bare value in nM.

> print(dat)
                           structure.string  observable  measurement.units  observed.value
1  Cc1ccc(-c2cc(C(=O)N3CCCCN3)nn2-c2cccnc2)nc1        IC50                 nM             140

(Q) Please give the documented IC50 of COC1CCN(C(=O)c2cc(-c3ccc(C)cn3)n(-c3cccnc3)n2)CC1
(A) 120

(Q) Using known records, supply IC50 for O=C(c1cc(-c2ccc(Cl)cn2)n(-c2cccnc2)n1)N1CCC(F)CC1
(A) 95

(Q) Give reported IC50 value for NC(=O)c1ccc(-c2cc(C(=O)N3CCC(F)(F)CC3)nn2-c2cccnc2)nc1
(A) 130

###

- Target entity: Cyclooxygenase-1 (COX-1) (Ovis aries, UniProt P05979)
- Construct: purchased Cayman Chemical Company 560101 and 560121
- Test protocol: COX Inhibitor Screening Assay Kit, COX-1 (PGF2α by ELISA)
- Format: biochemical
- Settings: 50 μM compound; read-out: Inhibitory effect against COX-1 at 50 μM (% inhibition)
// values below are reported inhibition at 50 µM
Note: unit % is implicit; provide only the numeric part.

Some solved cases for reference:
> print(dat)
                                   compound                             target.entity  observed.value
1  Cc1ccc(-c2cc(C(=O)N3CCC(F)(F)CC3)nn2-c2cccnc2)nc1 [Example 15]  Cyclooxygenase-1 (COX-1) (Ovis aries, UniProt P05979)             8.1
2  Cc1ccc(-c2cc(C(=O)N3CCCCN3)nn2-c2cccnc2)nc1 [Example 57]  Cyclooxygenase-1 (COX-1) (Ovis aries, UniProt P05979)           -17.4

(Q) Annotate the compound COC1CCN(C(=O)c2cc(-c3ccc(C)cn3)n(-c3cccnc3)n2)CC1 [Example 30] with its measured inhibition at 50 µM.
(A) -21.1
